target: Dual specificity protein kinase CLK4 (Homo sapiens); test: qHTS Assay for Inhibitors of CDC-like Kinase 4 (Kinase-Glo Assay) (AID 1770); conditions: recombinant Clk4, Kinase-Glo ATP depletion luminescence; series mostly up to 66.7 µM; also: nearly all actives have a fitted effect of over 65% in size
Inconclusive results are not listed. Calls of active or inactive are those of the source. Calls follow the shape of the dose curve; as a rule, active = well fitted inhibition curve with a large enough effect; inconclusive = small, poorly fitted or top-dose-only effect; inactive = flat fitted curve, though single readings scatter.
Can you answer with just one of these options? 1 (active), 0 (inactive)

Solved entries:
CCNc1ncc2nc(-c3ccc(Cl)cc3)c(=O)n(Cc3cccc(OC)c3)c2n1	0
COc1ccc(CNc2ncncc2-c2ccccc2C(F)(F)F)c(OC)c1	0

Problem: # lookup: test call for "Cc1nc2cnc(N3CCN(C)CC3)nc2n(C[C@H]2CCCO2)c1=O"
Result: 0

Problem: # lookup: test call for "COc1ccc2[nH]cc(CCNc3ccnc(-c4cccc(C#N)c4)n3)c2c1"
Result: 1

Problem: # lookup: test call for "CN(C)Cc1ccccc1-c1nc(NC2CC2)c2ccccc2n1"
Result: 0

Problem: # lookup: test call for "COc1cccc(-c2nc(NCc3ccc(OC)cc3OC)c3ccccc3n2)c1"
Result: 0
